Please go through the items and note down their IC50.
tested on: SkBr3 breast cancer cells; assay: MTT cell viability assay in SkBr3 cells; format: cell-based; details: Homo sapiens, SK-BR-3, 48 h treatment, read-out: IC50 (µM) ± S.D. SkBr3

Illustrative cases are given below, each with its answer.
[
  {
    "compound": "Oc1ccc(C=Cc2cc(O)cc(O)c2)cc1 [resveratrol, 3, 4′,5-trihydroxy-stilbene]",
    "IC50": "> 90 µM"
  },
  {
    "compound": "O=C(O)c1ccc(/N=C/c2cc(O)cc(O)c2)cc1",
    "IC50": "> 90 µM"
  }
]

Here is another compound to look at.
Form: compound = O=C(O)c1ccc(/N=C/c2cc(O)ccc2O)cc1 ; IC50 = 15 µM
